Biological target: human GPR17 short isoform (Homo sapiens, UniProt Q13304)
Sequence (Q13304 29-367): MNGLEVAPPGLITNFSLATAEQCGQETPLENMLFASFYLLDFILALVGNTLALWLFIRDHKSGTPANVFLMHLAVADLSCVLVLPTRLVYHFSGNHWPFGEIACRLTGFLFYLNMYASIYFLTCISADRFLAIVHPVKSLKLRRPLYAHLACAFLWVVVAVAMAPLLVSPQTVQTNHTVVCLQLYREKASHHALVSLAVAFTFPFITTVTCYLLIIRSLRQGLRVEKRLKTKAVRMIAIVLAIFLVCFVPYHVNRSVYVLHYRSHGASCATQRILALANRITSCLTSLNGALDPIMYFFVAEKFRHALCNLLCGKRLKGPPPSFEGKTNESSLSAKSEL
Assay: GPR17 cAMP assay (hGPR17 cAMP, TR-FRET, antagonist mode)
Conditions: CHO-K1 cells stably expressing human GPR17 short isoform; EC80 of agonist MDL29,951; forskolin 15 μM; 30 min at room temperature
Procedure: CHO-K1 cells stably expressing vector containing untagged human GPR17 short isoform (Roche) were cultured at 37° C./5% CO2 in DMEM (Dulbecco's Modified Eagle Medium): F-12 (1:1) supplemented with 10% foetal bovine serum and 400 μg/ml Geneticin. Changes in intracellular cyclic adenosine monophosphate (cAMP) levels were quantified using the Nano-TRF Detection Assay kit (Roche Diagnostics, Cat. No. 05214386001). This assay allows for direct cAMP quantification in a homogeneous solution. […]
Quantity measured: IC50 (nM)
# output: bare number, implied unit nM

Enquiry: Please look at this compound and report its IC50: COc1cc(CC#N)c(F)cc1NS(=O)(=O)c1cnc2cc(Br)ccn12
Return: 7

Enquiry: Please look at this compound and report its IC50: COc1nc(OCC(F)F)c(F)cc1NS(=O)(=O)c1cnc2nc(Br)ccn12
Return: 27

Enquiry: Please look at this compound and report its IC50: COc1nc(OCC(F)F)c(F)cc1NS(=O)(=O)c1cnc2c(C#N)c(C3CC3)ccn12
Return: 42

Enquiry: Please look at this compound and report its IC50: O=S(=O)(Nc1cc(F)c(OC(F)F)nc1OC(F)F)c1cnc2cc(Cl)ccn12
Return: 57

Enquiry: Please look at this compound and report its IC50: COc1cc(CC#N)c(F)cc1NS(=O)(=O)c1cnc2cc(C3COC3)ccn12
Return: 179

Enquiry: Please look at this compound and report its IC50: COc1nc(NS(=O)(=O)c2cnn3cc(Br)ccc23)c(F)cc1OCCF
Return: 26

Enquiry: Please look at this compound and report its IC50: COc1nc(CC#N)c(F)cc1NS(=O)(=O)c1cnc2cc(Cl)ccn12
Return: 23

Enquiry: Please look at this compound and report its IC50: COc1nc(OCC(F)F)c(F)cc1NS(=O)(=O)c1cnc2cc(C#N)ccn12
Return: 176

Enquiry: Please look at this compound and report its IC50: COc1nc(OCC(F)F)c(F)cc1NS(=O)(=O)c1cnc2cc(C)ccn12
Return: 7
